Recorded measurements of viability, T/C, one per entry
tested on: LG0703-F948-PDC complex spheroid viability; test: Anticancer human tumor LG0703-F948-PDC patient-derived lung adenocarcinoma cell line growth inhibition; settings: second compound 1 µM; first compound 0.03 µM; stronger effect = lower value;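 also: spheroids exposed to agents for seven days before readout; 100% = DMSO vehicle control wells as normalization base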
The reply should contain only the number, in %.

For orientation, consider the following solved cases.
[
  {
    "Compound": "CCc1c2c(nc3ccc(O)cc13)-c1cc3c(c(=O)n1C2)COC(=O)[C@]3(O)CC + NC1CC1c1ccc(-c2cccc(O)c2)cc1",
    "Tested System": "LG0703-F948-PDC complex spheroid viability",
    "Measurement": 11.7
  },
  {
    "Compound": "O=C(C=Cc1cccc(S(=O)(=O)Nc2ccccc2)c1)NO + NC1CC1c1ccc(-c2cccc(O)c2)cc1",
    "Tested System": "LG0703-F948-PDC complex spheroid viability",
    "Measurement": 93.9
  },
  {
    "Compound": "Nc1ncn(C2CC(O)C(CO)S2)c(=O)n1 (stereo unspecified) + NC1CCC(NC2CC2c2ccccc2)CC1",
    "Tested System": "LG0703-F948-PDC complex spheroid viability",
    "Measurement": 122
  }
]

Would you kindly look at the next entry?
COc1cc(C2c3cc4c(cc3C(OC3OC5COC(C)OC5C(O)C3O)C3COC(=O)C23)OCO4)cc(OC)c1O (stereo unspecified) + NC1CC1c1ccc(-c2cccc(O)c2)cc1 on LG0703-F948-PDC complex spheroid viability gives viability, T/C = 115
